Value source: BindingDB's records for doi:10.3109/14756366.2013.765413

Examples of molecules with documented IC50 follow.
target: DNA topoisomerase I/type IB small subunit (Leishmania donovani, UniProt E9B7X3+E9BRC0); assay: Preincubation Relaxation Assay; conditions: pH 7.5
Sequence (E9B7X3 whole entry): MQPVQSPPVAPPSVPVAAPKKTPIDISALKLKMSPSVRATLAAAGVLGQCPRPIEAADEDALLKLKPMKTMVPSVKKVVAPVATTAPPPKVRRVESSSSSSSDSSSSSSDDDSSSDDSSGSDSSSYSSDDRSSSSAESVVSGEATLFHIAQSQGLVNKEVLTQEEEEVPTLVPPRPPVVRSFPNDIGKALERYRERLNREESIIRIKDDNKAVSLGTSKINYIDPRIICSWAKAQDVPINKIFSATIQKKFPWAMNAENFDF
Sequence (E9BRC0 whole entry): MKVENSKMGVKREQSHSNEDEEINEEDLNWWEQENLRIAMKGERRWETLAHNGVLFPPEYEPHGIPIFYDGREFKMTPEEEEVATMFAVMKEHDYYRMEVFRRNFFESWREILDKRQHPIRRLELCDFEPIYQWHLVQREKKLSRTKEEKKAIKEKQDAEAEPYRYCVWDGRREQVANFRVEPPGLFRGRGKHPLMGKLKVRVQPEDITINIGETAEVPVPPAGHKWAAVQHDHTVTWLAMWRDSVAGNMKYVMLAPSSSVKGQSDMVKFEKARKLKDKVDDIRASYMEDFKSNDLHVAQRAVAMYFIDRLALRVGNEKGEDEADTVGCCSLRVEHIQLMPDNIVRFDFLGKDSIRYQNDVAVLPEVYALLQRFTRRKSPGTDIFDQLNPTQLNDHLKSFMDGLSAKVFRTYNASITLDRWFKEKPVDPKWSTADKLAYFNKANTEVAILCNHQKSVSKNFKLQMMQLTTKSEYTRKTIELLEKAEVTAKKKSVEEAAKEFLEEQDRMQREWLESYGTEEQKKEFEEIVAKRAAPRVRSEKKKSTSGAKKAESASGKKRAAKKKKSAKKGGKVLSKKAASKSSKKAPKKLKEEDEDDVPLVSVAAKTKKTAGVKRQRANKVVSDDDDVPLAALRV
// units = µM; emit number, no label

O=C1C(O)=C(C(C2=C(O)C(=O)c3ccccc3C2=O)c2ccccc2)C(=O)c2ccccc21 yielded IC50 of 16

The reported value for O=C1C(O)=C(C(C2=C(O)C(=O)c3ccccc3C2=O)c2ccc(O)cc2)C(=O)c2ccccc21 in terms of IC50 is 13

Shifting focus to the molecule that follows.
For record COc1cc(C(C2=C(O)C(=O)c3ccccc3C2=O)C2=C(O)C(=O)c3ccccc3C2=O)ccc1O the listed IC50 is 14
